Provide the recorded MIC for the entries that follow.
Tested on: Control Strain Pseudomonas aeruginosa ATCC 27853
Assay: Test Example 2: antibacterial activity test (MIC)
Type: cell-based
Settings: ATCC27853, ID-CAMHB, ATCC 27853, read-out: ID-CAMHB, MIC
Reply with just the number (in µg/mL).

Would you mind telling me what MIC value was observed for CC(C)(O/N=C(\C(=O)N[C@@H]1C(=O)N2C(C(=O)O)=C(C[N+]3(CCN(CCCNC(=O)c4ccc(O)c(O)c4Cl)C(=O)c4ccc(O)c(O)c4Cl)CCCC3)CS[C@H]12)c1csc(N)n1)C(=O)O [Compound 10] ?
0.0625

Would you mind telling me what MIC value was observed for CC(C)(O/N=C(\C(=O)N[C@@H]1C(=O)N2C(C(=O)[O-])=C(C[N+]3(CC4(NC(=O)c5ccc(O)c(O)c5Cl)CC4)CCCC3)CS[C@H]12)c1csc(N)n1)C(=O)O [Compound 2] ?
0.0625

Would you mind telling me what MIC value was observed for CC(C)(O/N=C(\C(=O)N[C@@H]1C(=O)N2C(C(=O)O)=C(C[N+]3(CCNC(=O)c4ccc5cc(O)c(O)cc5c4)CCCC3)CS[C@H]12)c1csc(N)n1)C(=O)O [Compound 8] ?
0.25
